Data provenance is ChEMBL document CHEMBL3112475.

test: Cytotoxicity against human ME180 cells after 48 hrs by MTT assay; assay type: functional, cell-based; conditions: ME-180, 48 h
pIC50: −log10 of the molar value.
Readout Name: pIC50

For record `COC(=O)[C@]12CCC(C)(C)C[C@H]1C1=CC[C@@H]3[C@@]4(C)Cc5c(-c6ccccc6)nc(=O)[nH]c5C(C)(C)[C@@H]4CC[C@@]3(C)[C@]1(C)CC2` the listed pIC50 is < 4.00

For record `COC(=O)[C@]12CCC(C)(C)C[C@H]1C1=CC[C@@H]3[C@@]4(C)C[C@@H]5C(=NN[C@H]5c5ccccc5)C(C)(C)[C@@H]4CC[C@@]3(C)[C@]1(C)CC2` the listed pIC50 is < 4.00

For record `COC(=O)[C@]12CCC(C)(C)C[C@H]1C1=CC[C@@H]3[C@@]4(C)C/C(=C\c5ccccc5)C(=O)C(C)(C)[C@@H]4CC[C@@]3(C)[C@]1(C)CC2` the listed pIC50 is < 4.00

---

experiment: Cytotoxicity against human ME180 cells after 48 hrs by MTT assay; format: functional, cell-based; conditions: ME-180, 48 h
Please respond with reported IC50 for every item in the list.
Quick note: give the figure in µM, leave out the unit.

For record `COC(=O)[C@]12CCC(C)(C)C[C@H]1C1=CC[C@@H]3[C@@]4(C)Cc5c(-c6ccccc6)nc(N)nc5C(C)(C)[C@@H]4CC[C@@]3(C)[C@]1(C)CC2` the listed IC50 is 16.7

For record COc1cc([C@@H]2c3cc4c(cc3[C@@H](O[C@@H]3O[C@@H]5CO[C@@H](C)O[C@H]5[C@H](O)[C@H]3O)[C@H]3COC(=O)[C@H]23)OCO4)cc(OC)c1O [ETOPOSIDE] the listed IC50 is 8.9

---

test system: HeLa; assay: Cytotoxicity against human HeLa cells after 48 hrs by MTT assay; assay type: functional, cell-based
Please respond with reported pIC50 for every item in the list.
The meaning of pIC50 here: minus log10 of the concentration in molar units.

For record `COC(=O)[C@]12CCC(C)(C)C[C@H]1C1=CC[C@@H]3[C@@]4(C)Cc5c(-c6ccccc6)nc(=S)[nH]c5C(C)(C)[C@@H]4CC[C@@]3(C)[C@]1(C)CC2` the listed pIC50 is 4.12

For record COc1cc([C@@H]2c3cc4c(cc3[C@@H](O[C@@H]3O[C@@H]5CO[C@@H](C)O[C@H]5[C@H](O)[C@H]3O)[C@H]3COC(=O)[C@H]23)OCO4)cc(OC)c1O [ETOPOSIDE] the listed pIC50 is 5.33

For record `COC(=O)[C@]12CCC(C)(C)C[C@H]1C1=CC[C@@H]3[C@@]4(C)Cc5c(-c6ccccc6)nc(N)nc5C(C)(C)[C@@H]4CC[C@@]3(C)[C@]1(C)CC2` the listed pIC50 is 4.35

---

system: PC-3; assay: Cytotoxicity against human PC3 cells after 48 hrs by MTT assay; assay type: functional, cell-based; settings: PC-3, 48 h
Readout Name: pIC50
The meaning of pIC50 here: minus log10 of the concentration in molar units.

For record `COC(=O)[C@]12CCC(C)(C)C[C@H]1C1=CC[C@@H]3[C@@]4(C)Cc5c(-c6ccccc6)nc(=O)[nH]c5C(C)(C)[C@@H]4CC[C@@]3(C)[C@]1(C)CC2` the listed pIC50 is 4.06

For record COc1cc([C@@H]2c3cc4c(cc3[C@@H](O[C@@H]3O[C@@H]5CO[C@@H](C)O[C@H]5[C@H](O)[C@H]3O)[C@H]3COC(=O)[C@H]23)OCO4)cc(OC)c1O [ETOPOSIDE] the listed pIC50 is 4.84
